# measurement-description: chemical genetic growth profiling, strain panel (AID 1159580);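 further: tested at 20 µM; growth read once vehicle control cultures reached saturation at 30 °C; 1 = growth at the plate median or of vehicle wells; lower values mean less growth of the strain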
# measurement-context: S. cerevisiae deletion strains, growth OD, locus YLR058C, strain SHM2 (second series), active compounds read low
Among all 5,500 compounds or so, about 2,000 (36%) were called active. Another 18% or so got no clear call; they are omitted. The list shows a part of the results.
In plain terms, low normalized growth, meaning strictly below 1, gives satisfied, and everything else gives not satisfied.

Please review the following examples before continuing.
CSC(=Nc1ccc(C(C)C)cc1)NC#N: satisfied
COc1ccc(/C=N\NC(=O)CC#N)cc1OC: not satisfied

# next compound below
Lookup: Please let me know if N/C(=N/OC(=O)C(Cl)Cl)c1cccc(Cl)c1Cl shows normalized growth below 1.
Found: satisfied

====

Field: normalized growth. Provide a value for each of the molecules that follow.
# measurement-description: chemical genetic growth profiling, strain panel (AID 1159580);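 further: tested at 20 µM; growth read once vehicle control cultures reached saturation at 30 °C; 1 = growth at the plate median or of vehicle wells; lower values mean less growth of the strain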
# measurement-context: S. cerevisiae deletion strains, growth OD, locus YJL166W, strain qcr8, active compounds read low
Among all 5,500 compounds or so, about 2,000 (36%) were called active. Another 18% or so got no clear call; they are omitted. This is one part of the list.
Numbers only.

Reference set (5 entries):
C[C@]12CCC3c4ccc(O)cc4CCC3C1CC[C@@H]2OC(=O)CCC1CCCC1 (stereo partly specified): 1.02
O=c1[nH]cnc2nc[nH]c12: 1.01
CCCCC(=O)O[C@H]1CCC2C3CCc4cc(O)ccc4C3CC[C@@]21C (stereo partly specified): 1.02
CC(=O)O[C@H]1CC2CCC3C(CC[C@@]4(C)C3C[C@H]([N+]3(C)CCCCC3)[C@@H]4OC(C)=O)[C@@]2(C)C[C@@H]1[N+]1(C)CCCCC1 (stereo partly specified): 1.02
CC(C)=CCC/C(C)=C/COc1ccc2ccc(=O)oc2c1: 0.99

Batch request: normalized growth per item, same order as input.
1. COc1cc(O)c(C(C)=O)c(OC)c1
2. c1coc(CNc2ncnc3nc[nH]c23)c1
3. CC(=O)Oc1ccc2c(c1)CCC1C2CC[C@@]2(C)C1CC[C@@H]2OC(C)=O (stereo partly specified)
4. Nc1ncnc2nc[nH]c12

Found:
[0.978, 1, 0.988, 0.977]

====

# measurement-description: chemical genetic growth profiling, strain panel (AID 1159580);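 further: tested at 20 µM; growth read once vehicle control cultures reached saturation at 30 °C; 1 = growth at the plate median or of vehicle wells; lower values mean less growth of the strain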
# measurement-context: S. cerevisiae deletion strains, growth OD, locus YDR334W, strain swr1, active compounds read low
Screen size: about 5,500 compounds; about 2,000 (36%) were called active. About 18% were inconclusive and are not listed. The list shows a part of the results.
result-type: normalized growth
One number for each entry.

Known results for molecules:
COc1cc(OC)c2c(c1Cl)OC1(C2=O)C(O)=CC(=O)CC1C (stereo not given): 1.01
C[N+]1(C)CCc2cc3c(cc2[C@H]1C1OC(=O)c2c1ccc1c2OCO1)OCO3 (stereo not given in full): 0.986
OC[C@@H](O)C(O[C@@H]1O[C@H](CO)[C@H](O)[C@H](O)[C@H]1O)[C@H](O)[C@@H](O)CO (stereo not given in full): 0.98
CC1=C2CCC3C(CC[C@]4(C)C(=O)CCC34)[C@@]2(C)CCC1=O (stereo not given in full): 1.01

Lookup: Answer with the recorded normalized growth of FC(F)(F)COCC(F)(F)F only.
Found: 1.01

====

# measurement-description: chemical genetic growth profiling, strain panel (AID 1159580);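 further: tested at 20 µM; growth read once vehicle control cultures reached saturation at 30 °C; 1 = growth at the plate median or of vehicle wells; lower values mean less growth of the strain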
# measurement-context: S. cerevisiae deletion strains, growth OD, locus YKL048C, strain ELM1
Hit rate of the full screen: of about 5,500 compounds, about 2,000 (36%) were called active. Inconclusive results (about 18%) are left out. Cut-off read from the data, not from the text of the source: active = normalized growth mostly below about 0.91 (no sharp cut-off); inconclusive = no clear call, values can overlap the other calls; inactive = mostly above about 0.92. The list shows a part of the results.
Returns: one label drawn from true (1) (active), false (0) (inactive)

O=C1CSC(=Nc2cc(Cl)cc(Cl)c2)N1Cc1cccnc1: false (0)

Lookup: Called result for COc1ccc(/C(C#N)=C2C=C/C(=N/O)C(Cl)=C\2)cc1
Found: false (0)

Lookup: What was the test verdict on N/C(=N/OC(=O)c1ccccc1Cl)c1cccc(CS(=O)(=O)c2ccc(Cl)cc2)c1 ?
Found: false (0)

Lookup: Write down the call the test reported for this compound. Item: CSC(SC)=C(C#N)C(=O)c1ccccc1Cl
Found: true (1)

Lookup: Outcome logged for O=C(Nc1ccc(Cl)cc1)c1csc([N+](=O)[O-])c1 in this assay:
Found: false (0)

Lookup: Outcome logged for N#CC(C#N)=NNc1cc(C(F)(F)F)ccc1OCC(F)(F)F in this assay:
Found: false (0)
